target: OTU domain-containing protein 3 (Homo sapiens) (UniProt Q5T2D3)
Sequence (Q5T2D3 whole entry, looked up, the tested form may be a part): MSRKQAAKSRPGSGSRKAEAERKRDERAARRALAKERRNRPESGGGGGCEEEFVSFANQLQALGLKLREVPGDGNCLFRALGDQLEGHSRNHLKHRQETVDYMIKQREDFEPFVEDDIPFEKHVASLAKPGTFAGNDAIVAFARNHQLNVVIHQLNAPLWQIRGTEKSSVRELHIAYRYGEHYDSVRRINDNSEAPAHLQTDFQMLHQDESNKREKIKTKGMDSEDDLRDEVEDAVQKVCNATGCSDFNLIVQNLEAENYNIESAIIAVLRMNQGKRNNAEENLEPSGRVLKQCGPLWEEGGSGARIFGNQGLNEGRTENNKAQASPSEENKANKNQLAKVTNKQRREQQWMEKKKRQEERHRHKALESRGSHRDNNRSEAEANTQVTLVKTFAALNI
assayComment: Validation of screening hits, potency titration, in vitro enzymatic, OTU domain-containing protein 3 DUB inhibitors (AID 1645868)
measurementSetup: purified OTUD3, ubiquitin-rhodamine cleavage fluorescence, 2 h
Activity calls are given as the source filed them.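 The calls were made as follows: active = maximal percent inhibition of the deubiquitinase OTUD3 of at least 30% across the tested doses; inactive = the rest.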
Write down the outcome that applies. Available outcomes: active, inactive

{"compound": "O=C(CSc1nnc(-c2ccncc2)n1Cc1ccccc1)c1ccc2[nH]c(O)cc2c1", "target": "OTU domain-containing protein 3 (Homo sapiens) (UniProt Q5T2D3)", "categoryLabel": "inactive"}

Here is the next item to consider.
[in] // param item: Cc1ccc(NC(=O)c2sc(=S)n(CCc3ccccc3)c2N)cc1 ; yields the recorded call
[out] active

###

target: OTU domain-containing protein 3 (Homo sapiens)
assayComment: Validation of screening hits, potency titration, in vitro enzymatic, OTU domain-containing protein 3 DUB inhibitors (AID 1645868)
measurementSetup: purified OTUD3, ubiquitin-rhodamine cleavage fluorescence, 2 h
Activity calls are given as the source filed them.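 How the source made its calls: active means maximal percent inhibition of the deubiquitinase OTUD3 of at least 30% across the tested doses; inactive means the rest.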
Write down the outcome that applies. Available outcomes: active, inactive

[in] // param item: CCC(=O)N1c2ccccc2NC2=C(C(=O)CC(c3ccccc3OCc3ccccc3)C2)C1c1ccccc1 (stereo unspecified) ; yields the recorded call
[out] active

[in] Do the same for COc1cccc(OCCCn2c(C(C)NC(=O)c3ccco3)nc3ccccc32)c1 (stereo unspecified) please
[out] active

[in] Do the same for Cc1ccc(C)c(NC(=O)CSc2nnc(-c3ccccn3)n2Cc2ccco2)c1 please
[out] inactive

[in] Do the same for Oc1cc(OCc2cccc(C(F)(F)F)c2)ccc1-c1ccn[nH]1 please
[out] active

[in] Do the same for CCc1nc2cc(NC(=O)c3cccc(N4CCCC4=O)c3)ccc2n1C please
[out] inactive

[in] Do the same for N#C/C(=C/c1sc(N2CCOCC2)nc1-c1ccccc1)c1ccccn1 please
[out] inactive

[in] Do the same for Cc1nc(NCc2ccccn2)c2cc(-c3ccccc3)sc2n1 please
[out] active

###

target: OTU domain-containing protein 3 (Homo sapiens)
assayComment: Validation of screening hits, potency titration, in vitro enzymatic, OTU domain-containing protein 3 DUB inhibitors (AID 1645868)
measurementSetup: purified OTUD3, ubiquitin-rhodamine cleavage fluorescence, 2 h
Calls of active or inactive are those of the source.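 The calls were made as follows: active = maximal percent inhibition of the deubiquitinase OTUD3 of at least 30% across the tested doses; inactive = the rest.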
Write down the outcome that applies. Available outcomes: active, inactive

{"compound": "Cn1nccc1C(=O)N1CCCCC1c1ncc(Cc2ccc(Cl)cc2)o1 (stereo unspecified)", "categoryLabel": "inactive"}
{"compound": "COc1ccc(Cl)cc1NC(=O)c1cc(-c2ccccn2)n[nH]1", "categoryLabel": "active"}
{"compound": "O=C(CCCCn1c(=O)c2ccccc2n(CC(=O)Nc2ccc(F)c(Cl)c2)c1=O)NCc1ccco1", "categoryLabel": "inactive"}
{"compound": "Cn1c(=O)c2c(nc3n(-c4ccccc4F)c(-c4ccccc4)cn23)n(C)c1=O", "categoryLabel": "inactive"}
{"compound": "CCC1=C(c2ccc(C)cc2)S(=O)(=O)NC1=NCC(=O)NC(C)c1ccccc1 (stereo unspecified)", "categoryLabel": "active"}

Here is the next item to consider.
[in] // param item: CCOc1ccc2cc3c(nc2c1)OC(=O)N(Cc1ccc(C)o1)C3 ; yields the recorded call
[out] inactive

###

target: OTU domain-containing protein 3 (Homo sapiens)
assayComment: Validation of screening hits, potency titration, in vitro enzymatic, OTU domain-containing protein 3 DUB inhibitors (AID 1645868)
measurementSetup: purified OTUD3, ubiquitin-rhodamine cleavage fluorescence, 2 h
The source made the active and inactive calls.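 The calls were made as follows: active = maximal percent inhibition of the deubiquitinase OTUD3 of at least 30% across the tested doses; inactive = the rest.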
Write down the outcome that applies. Available outcomes: active, inactive

{"entrySmiles": "CCOc1ccccc1C(=O)Oc1ccc2c(C)cc(=O)oc2c1", "categoryLabel": "active"}

[in] // param item: O=C(/C=C/c1ccc(F)cc1)N1CCc2ccccc2C1 ; yields the recorded call
[out] inactive

[in] Do the same for CC(C)(C)C(=O)Nc1ccc(SCc2nnc(-c3ccccc3)o2)cc1 please
[out] inactive

[in] Do the same for O=C(/C=C/c1ccc2c(c1)OCO2)Nc1nc2c(s1)COCC2 please
[out] inactive

###

target: OTU domain-containing protein 3 (Homo sapiens) (UniProt Q5T2D3)
assayComment: Validation of screening hits, potency titration, in vitro enzymatic, OTU domain-containing protein 3 DUB inhibitors (AID 1645868)
measurementSetup: purified OTUD3, ubiquitin-rhodamine cleavage fluorescence, 2 h
Activity calls are given as the source filed them.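 Rule for the calls: active = maximal percent inhibition of the deubiquitinase OTUD3 of at least 30% across the tested doses; inactive = the rest.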
Below: a set of entries, each annotated with reported IC50.

Worked set:
{"compound": "O=C(Nc1oc2ccccc2c(=O)c1-c1ccc2c(c1)OCO2)C1CCCCC1", "target": "OTU domain-containing protein 3 (Homo sapiens) (UniProt Q5T2D3)", "IC50": "> 50 µM (inactive)"}
{"compound": "O=C(Cc1ccccc1F)N1CCC2(CC1)CC1(CO2)Nc2ccccc2-n2cccc21 (stereo not drawn)", "target": "OTU domain-containing protein 3 (Homo sapiens) (UniProt Q5T2D3)", "IC50": "> 50 µM (inactive)"}

[in] Request: IC50, test system OTU domain-containing protein 3 (Homo sapiens) (UniProt Q5T2D3), entry CC(=O)NCc1nc(-c2ccc3c(c2)nc(C)c(=O)n3C2CCCC2)no1
[out] > 50 µM (inactive)

###

target: OTU domain-containing protein 3 (Homo sapiens) (UniProt Q5T2D3)
assayComment: Validation of screening hits, potency titration, in vitro enzymatic, OTU domain-containing protein 3 DUB inhibitors (AID 1645868)
measurementSetup: purified OTUD3, ubiquitin-rhodamine cleavage fluorescence, 2 h
Active and inactive are the calls of the source.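 Rule for the calls: active = maximal percent inhibition of the deubiquitinase OTUD3 of at least 30% across the tested doses; inactive = the rest.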
Write down the outcome that applies. Available outcomes: T (active), F (inactive)

{"compound": "CC(C)N1C[C@@H]2C[C@H](NS(=O)(=O)c3cccc(C#N)c3)CN2Cc2ccccc21", "target": "OTU domain-containing protein 3 (Homo sapiens) (UniProt Q5T2D3)", "categoryLabel": "F"}
{"compound": "CCCCNC(=O)C1Sc2nnc(-c3ccccc3)n2NC1c1ccccc1 (stereo not given)", "target": "OTU domain-containing protein 3 (Homo sapiens) (UniProt Q5T2D3)", "categoryLabel": "T"}
{"compound": "Cn1cc(-c2cnc(-c3cccc(F)c3)nc2)cc1C(=O)NCc1cccnc1", "target": "OTU domain-containing protein 3 (Homo sapiens) (UniProt Q5T2D3)", "categoryLabel": "F"}
{"compound": "CSc1ccccc1C(=O)Nc1sc2c(c1C(N)=O)CCC(C)C2 (stereo not given)", "target": "OTU domain-containing protein 3 (Homo sapiens) (UniProt Q5T2D3)", "categoryLabel": "T"}

[in] // param item: O=C(Cn1c(=O)n(-c2ccccc2)c(=O)c2ccc(C(=O)NCc3ccc4c(c3)OCO4)cc21)NCCC1=CCCCC1 ; yields the recorded call
[out] T

###

target: OTU domain-containing protein 3 (Homo sapiens)
assayComment: Validation of screening hits, potency titration, in vitro enzymatic, OTU domain-containing protein 3 DUB inhibitors (AID 1645868)
measurementSetup: purified OTUD3, ubiquitin-rhodamine cleavage fluorescence, 2 h
Active and inactive are the calls of the source.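 The calls were made as follows: active = maximal percent inhibition of the deubiquitinase OTUD3 of at least 30% across the tested doses; inactive = the rest.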
Write down the outcome that applies. Available outcomes: active, inactive

{"entrySmiles": "Fc1cc(F)c2[nH]cc(-c3nnnn3-c3ccc4ccccc4c3)c2c1", "categoryLabel": "active"}
{"entrySmiles": "O=C(Nc1ccccc1Br)c1ccn(COc2ccccc2F)n1", "categoryLabel": "active"}
{"entrySmiles": "Cc1ccc(C)c(-n2c(C)cc(/C=C3/C(=N)N4C(c5ccc(F)cc5)=CSC4=NC3=O)c2C)c1", "categoryLabel": "inactive"}
{"entrySmiles": "Cc1ccc2nc(NC(=O)CSc3nnc(-c4ccncc4)n3C3CC3)sc2c1", "categoryLabel": "inactive"}
{"entrySmiles": "CCOC(=O)c1ccc(-n2c(=O)c(C#N)cc3c(=O)n4ccccc4nc32)cc1", "categoryLabel": "inactive"}

[in] // param item: N#Cc1ccccc1COC(=O)c1ccc2ccccc2n1 ; yields the recorded call
[out] inactive

[in] Do the same for CC(C)CC(=O)Nc1cc(F)c2nc(N3CCOCC3)ccc2c1 please
[out] inactive

[in] Do the same for O=C(COc1cccc2ccc(N3CCC(Cc4ccccc4)CC3)nc12)NCc1ccc(F)cc1 please
[out] active

###

Below: a set of entries, each annotated with reported IC50.
target: OTU domain-containing protein 3 (Homo sapiens) (UniProt Q5T2D3)
assayComment: Validation of screening hits, potency titration, in vitro enzymatic, OTU domain-containing protein 3 DUB inhibitors (AID 1645868)
measurementSetup: purified OTUD3, ubiquitin-rhodamine cleavage fluorescence, 2 h
Activity calls are given as the source filed them.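 How the source made its calls: active means maximal percent inhibition of the deubiquitinase OTUD3 of at least 30% across the tested doses; inactive means the rest.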

Worked set:
{"molecule": "COc1ccc(Cl)c(NC(=O)C2CC(=O)Nc3cc(-c4ccccc4)nn32)c1 (stereo not given)", "observable": "IC50", "result": "24.9 µM"}
{"molecule": "COC(=O)c1ccc(Cn2cnc3ccc(Br)cc3c2=O)o1", "observable": "IC50", "result": "> 50 µM (inactive)"}
{"molecule": "Cc1cnnn1-c1ccc(C(=O)Nc2ccc(Cl)cc2)cc1", "observable": "IC50", "result": "> 50 µM (inactive)"}
{"molecule": "COc1cc(C#N)c(NC(=NCc2ccc(F)cc2)SC)cc1OC", "observable": "IC50", "result": "49 µM"}

[in] Consider the molecule COc1ccc(-c2cc3c(=O)n(CC(=O)NCCCN4CCCC4)ncn3n2)cc1 and give its measured IC50.
[out] > 50 µM (inactive)
